# System: 5-hydroxytryptamine receptor 1A (Homo sapiens, UniProt P08908); also: assay procedure not described here
# Sequence (P08908 whole entry): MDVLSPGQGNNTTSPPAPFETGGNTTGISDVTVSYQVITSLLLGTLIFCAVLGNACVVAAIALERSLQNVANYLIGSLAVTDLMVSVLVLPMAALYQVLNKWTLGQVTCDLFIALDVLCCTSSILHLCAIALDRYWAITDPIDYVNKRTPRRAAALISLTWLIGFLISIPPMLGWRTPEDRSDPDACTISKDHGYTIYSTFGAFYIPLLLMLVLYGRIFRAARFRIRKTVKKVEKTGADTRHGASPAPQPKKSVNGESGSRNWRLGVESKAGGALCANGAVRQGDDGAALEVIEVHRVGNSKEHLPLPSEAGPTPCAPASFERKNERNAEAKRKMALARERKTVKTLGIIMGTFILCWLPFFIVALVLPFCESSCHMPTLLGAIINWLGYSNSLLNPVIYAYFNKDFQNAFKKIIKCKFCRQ
# Type: functional, cell-based
// AC50 lookup, one value per entry
Quantity Name: AC50

1) O=C(O)CCCc1ccccc1 [PHENYLBUTANOIC ACID] : > 10 µM
2) NC[C@H]1O[C@H](O[C@H]2[C@H](O)[C@@H](O[C@H]3O[C@H](CO)[C@@H](O)[C@H](N)[C@H]3O)[C@H](N)C[C@@H]2N)[C@H](O)[C@@H](O)[C@@H]1O [KANAMYCIN] : > 10 µM
3) OCCN1CCN(CCCN2c3ccccc3C=Cc3ccccc32)CC1 [OPIPRAMOL] : > 30 µM
4) Oc1ncnc2[nH]ncc12 [ALLOPURINOL] : > 10 µM

====

# System: Progesterone receptor (Homo sapiens); also: assay procedure not described here
# Sequence (P06401 whole entry): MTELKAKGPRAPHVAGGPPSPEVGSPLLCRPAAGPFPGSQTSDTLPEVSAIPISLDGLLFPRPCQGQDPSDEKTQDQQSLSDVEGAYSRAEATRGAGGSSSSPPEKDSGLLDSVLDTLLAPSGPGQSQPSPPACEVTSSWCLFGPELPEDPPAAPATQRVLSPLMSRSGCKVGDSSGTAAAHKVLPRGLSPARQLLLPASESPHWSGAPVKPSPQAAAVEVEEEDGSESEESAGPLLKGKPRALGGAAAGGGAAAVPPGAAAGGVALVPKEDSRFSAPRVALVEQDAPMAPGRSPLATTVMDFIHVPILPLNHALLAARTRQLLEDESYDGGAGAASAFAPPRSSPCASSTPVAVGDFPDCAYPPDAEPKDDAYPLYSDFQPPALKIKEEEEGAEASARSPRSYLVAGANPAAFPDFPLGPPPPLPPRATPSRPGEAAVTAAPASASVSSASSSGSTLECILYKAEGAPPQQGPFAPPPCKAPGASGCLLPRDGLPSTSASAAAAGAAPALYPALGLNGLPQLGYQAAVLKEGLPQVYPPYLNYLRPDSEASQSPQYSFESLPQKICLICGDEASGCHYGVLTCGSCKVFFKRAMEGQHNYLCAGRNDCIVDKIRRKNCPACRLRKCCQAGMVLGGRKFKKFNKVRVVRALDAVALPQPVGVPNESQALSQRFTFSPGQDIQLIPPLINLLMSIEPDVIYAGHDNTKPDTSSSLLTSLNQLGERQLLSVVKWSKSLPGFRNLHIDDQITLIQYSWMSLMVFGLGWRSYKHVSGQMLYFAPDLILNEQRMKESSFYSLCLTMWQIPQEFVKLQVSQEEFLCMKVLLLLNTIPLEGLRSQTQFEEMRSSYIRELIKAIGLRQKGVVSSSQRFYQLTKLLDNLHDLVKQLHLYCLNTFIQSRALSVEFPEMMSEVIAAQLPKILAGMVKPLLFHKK
// AC50 lookup, one value per entry
Quantity Name: AC50

1) C(=N\NC1=NCCN1)/c1c2ccccc2c(/C=N/NC2=NCCN2)c2ccccc12 : > 30 µM
2) N/N=c1/cc2c(n[nH]1)CCN(C(=O)c1ccccc1)C2 : > 30 µM
3) C[C@@H]1C[C@H]2[C@@H]3CCC4=CC(=O)C=C[C@]4(C)[C@@]3(F)[C@@H](O)C[C@]2(C)[C@H]1C(=O)CO : 0.0331 µM
4) Cc1c(-c2ccccc2)oc2c(C(=O)OCCN3CCCCC3)cccc2c1=O [FLAVOXATE] : > 30 µM
5) O=C(O)c1cccc(-c2noc(-c3ccccc3F)n2)c1 : > 30 µM
